Target: T1, cytokeratin fragment 19 (Limits are not printed. The conventional CYFRA 21-1 soluble C-terminal fragment of KRT19 (after caspase-3 cleavage at Asp238) is used; from general knowledge, not from the paper or the candidate featu)
T1 chain: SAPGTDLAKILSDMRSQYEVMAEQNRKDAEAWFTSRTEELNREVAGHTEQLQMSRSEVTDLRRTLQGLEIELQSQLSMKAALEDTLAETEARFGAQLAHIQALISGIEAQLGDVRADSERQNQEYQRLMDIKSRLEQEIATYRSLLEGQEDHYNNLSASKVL
Assay: BLI; Octet RH96; CEA, SCCAg or CYFRA 21-1 immobilised on AR2G biosensors by amine coupling; peptides in a range of concentrations; room temperature; association 90 s, dissociation 180 s; KD as kd/ka
Details: both partners purified
recorded_endpoint: pKd
Here pKd is given on a logarithmic scale as minus log10 of the concentration in mol/L.

- QSYFNACWSCNH (source: synthetic peptide (Fmoc solid phase, Synpeptide Co., HPLC purified)) [synthetic peptide Y10]: 6.00

### Prompt I have this binder here, GMCSFVDVANCP (dodecapeptide Y3 from phage display, synthesized; source: synthetic peptide (Fmoc solid phase, Synpeptide Co., HPLC purified)) [synthetic peptide Y3] , and I need its recorded pKd.
### Response 7.85

### Prompt Then this binder: CFAGTPSILMLA (dodecapeptide Y1 from phage display, synthesized; source: synthetic peptide (Fmoc solid phase, Synpeptide Co., HPLC purified)) [synthetic peptide Y1]
### Response 7.08
